# Test system: 697B cells, BCR-induced NF-kB luciferase reporter luminescence
# testSummary: inhibitors of BCR-induced NF-kB activation, dose response, 697B cells, luciferase luminescence (AID 489023)
Activity calls are given as the source filed them. No rule for the calls is given here.
Assign a class; possible classes are class 1 for active, class 0 for inactive

See these solved cases before continuing.
molecule=Oc1[nH]c2ccccc2c1N=Nc1nc(Nc2ccccc2)nc(N2CCOCC2)n1 qualitativelabel="class 1"
molecule=COc1ccc(-c2ccc(F)cc2)cc1[C@H]1[C@H]2C=CC[C@@H](C)[C@@H]2C(=O)N1Cc1ccccc1 qualitativelabel="class 0"
molecule=CCN(CC)c1ccc2cc(NC(=O)CCC(=O)O)c(=O)oc2c1 qualitativelabel="class 1"
molecule="C=C(C)[C@@H]1CCC2(C(=O)O)CC[C@]3(C)[C@H](CC[C@@H]4[C@@]5(C)CCC(=O)C(C)(C)[C@@H]5CC[C@]43C)[C@@H]12 (stereo not given in full)" qualitativelabel="class 0"

Please look at the following molecule next.
(Q) So what was the verdict on C[C@H]1CCC/C=C/C2C[C@H](O)CC2[C@H](O)/C=C/C(=O)O1 (stereo not given in full) in this test?
(A) class 0

---

# System: 697B cells, BCR-induced NF-kB luciferase reporter luminescence
# testSummary: inhibitors of BCR-induced NF-kB activation, dose response, 697B cells, luciferase luminescence (AID 489023)
Activity calls are given as the source filed them. How the calls were made is not given here.
Assign a class; possible classes are active, inactive

See these solved cases before continuing.
molecule="COC(=O)C(C)Oc1cc(C)cc2oc(=O)c3c(c12)CCC3 (stereo unspecified)" qualitativelabel=inactive
molecule="CC(C)C(c1nnnn1Cc1ccccc1)N(Cc1ccco1)Cc1cccs1 (stereo unspecified)" qualitativelabel=inactive
molecule=CCCCCOc1ccc(NC(=O)C(=O)NCCCn2ccnc2)cc1 qualitativelabel=active
molecule=COc1ccc(C(=O)Nc2ccccc2C(=O)NCc2ccco2)cc1OC qualitativelabel=inactive
molecule=COc1ccc(-c2noc(N3CCC(C(=O)Nc4cccc(OC)c4)CC3)n2)cc1 qualitativelabel=inactive

(Q) So what was the verdict on CC(=O)c1cccc(S(=O)(=O)Nc2cc(C(F)(F)F)ccc2N2CCOCC2)c1 in this test?
(A) inactive

(Q) So what was the verdict on COc1ccc(/C=C2/SC(=S)N(CCC(=O)O)C2=O)cc1 in this test?
(A) active

(Q) So what was the verdict on Cc1c(CC(=O)NCCCC(=O)O)c(=O)oc2cc3c(cc12)CCC(C)(C)O3 in this test?
(A) active

(Q) So what was the verdict on C=CCOc1ccccc1CN(C(=O)CCl)c1ccc2c(c1)OCO2 in this test?
(A) active

(Q) So what was the verdict on CC(C)Oc1ccc(C(=O)Nc2ccc(N(C)C)cc2)cc1 in this test?
(A) inactive

(Q) So what was the verdict on O=C(CCCN1C(=O)S/C(=C\C=C\c2ccccc2)C1=O)Nc1ccc(O)cc1 in this test?
(A) active

---

# System: 697B cells, BCR-induced NF-kB luciferase reporter luminescence
# testSummary: inhibitors of BCR-induced NF-kB activation, dose response, 697B cells, luciferase luminescence (AID 489023)
Calls of active or inactive are those of the source. The rule behind the calls is not given here.
Assign a class; possible classes are True = active, False = inactive

compound=COc1ccc(NC(=S)NCc2ccccc2)c(OC)c1 targetentity="697B cells, BCR-induced NF-kB luciferase reporter luminescence" qualitativelabel=False
compound=Cc1noc(C)c1CSc1nc2[nH]ncc2c(=O)n1-c1ccccc1 targetentity="697B cells, BCR-induced NF-kB luciferase reporter luminescence" qualitativelabel=False
compound=COc1ccc(/C=C2\SC(=S)N(CCC(=O)Nc3ccc(O)cc3)C2=O)cc1 targetentity="697B cells, BCR-induced NF-kB luciferase reporter luminescence" qualitativelabel=False
compound=COc1ccccc1/C=C1\SC(=S)N(CCC(=O)NC2=NCCS2)C1=O targetentity="697B cells, BCR-induced NF-kB luciferase reporter luminescence" qualitativelabel=False
compound=CCOc1ccc(/C=C2\SC(=S)N(CCC(=O)Nc3cccc(C(=O)O)c3)C2=O)cc1 targetentity="697B cells, BCR-induced NF-kB luciferase reporter luminescence" qualitativelabel=True

(Q) So what was the verdict on O=C(Nc1cccc(Br)c1)c1ccc2c(c1)SC1=NS(=O)(=O)CCN12 in this test?
(A) True

(Q) So what was the verdict on CC(C)c1ccc(/C=C2\SC(=S)N(CCC(=O)N3CCCCC3CCO)C2=O)cc1 (stereo unspecified) in this test?
(A) True

(Q) So what was the verdict on CCc1ccc(-c2nnn(CCC(=O)OC)n2)cc1 in this test?
(A) True

(Q) So what was the verdict on Cc1ccc(-c2c[n+]3c(n2-c2ccccc2)SCC3)cc1 in this test?
(A) False

(Q) So what was the verdict on O=C(Nc1ccccc1C(=O)Nc1nnc(C(F)(F)F)s1)c1ccccc1 in this test?
(A) False

(Q) So what was the verdict on O=S(=O)(NCc1ccncc1)c1ccc(Br)s1 in this test?
(A) False

---

# Tested on: 697B cells, BCR-induced NF-kB luciferase reporter luminescence
# testSummary: inhibitors of BCR-induced NF-kB activation, dose response, 697B cells, luciferase luminescence (AID 489023)
Activity calls are given as the source filed them. No rule for the calls is given here.
Assign a class; possible classes are Y for active, N for inactive

See these solved cases before continuing.
structuresmilesstring=CCN(CC)c1ccc(/C=C2/C(=O)ON=C2C)cc1 targetentity="697B cells, BCR-induced NF-kB luciferase reporter luminescence" qualitativelabel=N
structuresmilesstring=Cc1ccc(C(=O)OCC(=O)N(CC(C)C)c2c(N)n(Cc3ccccc3)c(=O)[nH]c2=O)o1 targetentity="697B cells, BCR-induced NF-kB luciferase reporter luminescence" qualitativelabel=N
structuresmilesstring=Cc1ccc(C(=O)CSc2nnc(COc3ccccc3)o2)cc1 targetentity="697B cells, BCR-induced NF-kB luciferase reporter luminescence" qualitativelabel=N
structuresmilesstring=Cc1ccccc1Nc1nc(Cl)c(C=O)s1 targetentity="697B cells, BCR-induced NF-kB luciferase reporter luminescence" qualitativelabel=N
structuresmilesstring=Cc1ccc(NC(=O)O/N=C/c2c(C)nn(C(C)(C)C)c2C)cc1Cl targetentity="697B cells, BCR-induced NF-kB luciferase reporter luminescence" qualitativelabel=Y

(Q) So what was the verdict on Cc1ccc(-c2cn(-c3ccccc3)c3[n+]2CCCS3)cc1 in this test?
(A) N

---

# Tested on: 697B cells, BCR-induced NF-kB luciferase reporter luminescence
# testSummary: inhibitors of BCR-induced NF-kB activation, dose response, 697B cells, luciferase luminescence (AID 489023)
Active and inactive are the calls of the source. No rule for the calls is given here.
Assign a class; possible classes are active, inactive

See these solved cases before continuing.
structuresmilesstring=CCOc1cc2nc(-c3ccc(OC)c(OC)c3)nc(N3CCOCC3)c2cc1OC qualitativelabel=active
structuresmilesstring=Cc1ccc(Nc2nc(N3CCOCC3)nc(N3CCOCC3)n2)cc1C qualitativelabel=active
structuresmilesstring=Cc1nc(Nc2c(Cl)cccc2Cl)sc1C(=O)Nc1ccccc1 qualitativelabel=inactive
structuresmilesstring=CC1CCN(CCCNC(=O)COc2cc(=O)n(C)c3ccccc23)CC1 qualitativelabel=inactive
structuresmilesstring=O=C(Cc1cccc2ccccc12)Nc1ccc(-c2cc3ccccc3oc2=O)cc1 qualitativelabel=active

Please look at the following compound next.
(Q) So what was the verdict on CCCOc1ccc(NC(=O)C(=O)NCCCn2ccnc2)cc1 in this test?
(A) active

---

# System: 697B cells, BCR-induced NF-kB luciferase reporter luminescence
# testSummary: inhibitors of BCR-induced NF-kB activation, dose response, 697B cells, luciferase luminescence (AID 489023)
The source made the active and inactive calls. No rule for the calls is given here.
Assign a class; possible classes are active, inactive

See these solved cases before continuing.
compound="Cc1nc2cc(-c3cccc(F)c3)nn2c(C)c1CCC(=O)NC(C)CCc1ccco1 (stereo not given)" qualitativelabel=active
compound=COc1cc(Br)c(C(=O)c2nccc3cc(OC)c(OC)cc23)cc1OC qualitativelabel=inactive
compound=Cc1cc(OCC(=O)NC2CC2)c2c(C)c(C)c(=O)oc2c1 qualitativelabel=inactive
compound="CN(CC1CCCO1)S(=O)(=O)c1ccc(C(=O)Nc2nc3cc4c(cc3s2)OCO4)cc1 (stereo not given)" qualitativelabel=inactive

(Q) So what was the verdict on Cc1nc2cc(-c3ccccc3)nn2c(C)c1CCC(=O)NCc1ccco1 in this test?
(A) inactive

---

Measured IC50 of individual entries
# Test system: 697B cells, BCR-induced NF-kB luciferase reporter luminescence
# testSummary: inhibitors of BCR-induced NF-kB activation, dose response, 697B cells, luciferase luminescence (AID 489023)
Activity calls are given as the source filed them. How the calls were made is not given here.

Record excerpt, results attached:
molecule=Cc1ccc(-c2nn3c(C)nnc3c3ccccc23)cc1S(=O)(=O)NCCN1CCOCC1 targetentity="697B cells, BCR-induced NF-kB luciferase reporter luminescence" result="31.5 µM (inactive)"
molecule=CCn1c(=O)cc(OCC(=O)NCc2ccc(C)o2)c2ccccc21 targetentity="697B cells, BCR-induced NF-kB luciferase reporter luminescence" result="> 80 µM (inactive)"
molecule=O=S(=O)(c1cnc(Cl)c(Cl)c1)N1CCCc2ccccc21 targetentity="697B cells, BCR-induced NF-kB luciferase reporter luminescence" result="33.8 µM (inactive)"

Form field IC50, entry C#CCN(Cc1ccccc1)S(=O)(=O)C=C : 21.3 µM (inactive)

Form field IC50, entry Cn1nc(-c2ccc(N3CCOCC3)c(NS(=O)(=O)c3ccccc3)c2)c2ccccc2c1=O : > 80 µM (inactive)

Form field IC50, entry COc1ccc(/C=C2\SC(=S)N(CCC(=O)Nc3ccc(C(=O)O)cc3)C2=O)cc1 : > 80 µM (inactive)
